Target: T1, Recombinantly expressed fused calprotectin (His6-linker-S100A9-linker-S100A8), product code B-RCAL, BÜHLMANN … (human, UniProt P06702 1-114; P05109 1-93)
T1 chain: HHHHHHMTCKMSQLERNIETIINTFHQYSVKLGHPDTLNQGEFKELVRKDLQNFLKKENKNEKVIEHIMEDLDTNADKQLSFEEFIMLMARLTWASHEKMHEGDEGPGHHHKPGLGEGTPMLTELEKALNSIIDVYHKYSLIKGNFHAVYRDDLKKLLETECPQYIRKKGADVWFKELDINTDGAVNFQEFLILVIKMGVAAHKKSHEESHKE
Assay: fluorescence polarization
readout.type: Kd (nM)

binder	endpoint.value
RCPECVAFPMFQCHWYCG (not fully specified; cysteines cross-linked by a chemical linker (linker and isomer not named); N-terminal 5(6)-carboxyfluorescein; synthesised on rink amide AM resin) [Peptide 3 (RCPECVAFPMFQCHWYCG), phage display derived, cross-linked between cysteines]	23
